# Test system: U2932 parental
# EXPERIMENTAL_DETAILS: cell proliferation relative to vehicle (% of vehicle); higher = less growth inhibition
# CONDITION_DESCRIPTION: 500 nM; 72 h
Counter-ions that a name gives are not always drawn.
MEASURED_QUANTITY: cell proliferation

The cases that follow already have their cell proliferation on record.
COMPOUND	cell proliferation
CO[C@H]1C[C@@H]2CC[C@@H](C)[C@@](O)(O2)C(=O)C(=O)N2CCCC[C@H]2C(=O)O[C@H]([C@H](C)C[C@@H]2CC[C@@H](OP(C)(C)=O)[C@H](OC)C2)CC(=O)[C@H](C)/C=C(\C)[C@@H](O)[C@@H](OC)C(=O)[C@H](C)C[C@H](C)/C=C/C=C/C=C/1C	57.2
CC[C@]1(O)C[C@H]2CN(CCc3c([nH]c4ccccc34)[C@@](C(=O)OC)(c3cc4c(cc3OC)N(C=O)[C@H]3[C@@](O)(C(=O)OC)[C@H](OC(C)=O)[C@]5(CC)C=CCN6CC[C@]43[C@@H]65)C2)C1 [Vincristine sulfate]	13.4

Ask: For U2932 parental, provide cell proliferation of "NC(=O)Nc1sc(-c2ccc(F)cc2)cc1C(N)=O" please.
Result: 99.5

* * *

# Tested on: U2932 parental
# EXPERIMENTAL_DETAILS: cell proliferation relative to vehicle (% of vehicle); higher = less growth inhibition
# CONDITION_DESCRIPTION: 500 nM; 72 h
MEASURED_QUANTITY: cell proliferation
// keep it numeric: no unit symbol after the value

The cases that follow already have their cell proliferation on record.
>>> df
                                   compound     target_desc  observed_result
0  C[C@H](NC(=O)/C(C#N)=C/c1cccc(Br)n1)c1ccccc1  U2932 parental              102
1  CCCNC(=O)c1cn2ncnc(Nc3cc(C(=O)NC4CC4)ccc3C)c2c1C  U2932 parental             98.7
2  FC(F)(F)c1ccc(/C=C/c2nc(COc3ccc(CCCCn4ccnn4)cc3)co2)cc1 [Mubritinib (TAK 165)]  U2932 parental             57.4
3  Cn1cc(C2=C(c3ccc(Cl)cc3Cl)C(=O)NC2=O)c2ccccc21  U2932 parental              100
4  CN[C@@H](C)C(=O)N[C@H](C(=O)N1CCC[C@H]1C(=O)Nc1snnc1-c1ccccc1)C1CCCCC1  U2932 parental              103

Ask: # lookup: cell proliferation of "C=CC(=O)N1CCC[C@@H](n2nc(-c3ccc(Oc4ccccc4)cc3)c3c(N)ncnc32)C1"
Result: 70.9

Ask: # lookup: cell proliferation of "Cn1cc(-c2ccc3nnc(C(F)(F)c4ccc5ncccc5c4)n3n2)cn1"
Result: 99.2

Ask: # lookup: cell proliferation of C[S+]([O-])c1ccc(-c2nc(-c3ccc(F)cc3)c(-c3ccncc3)[nH]2)cc1 (stereo not drawn)
Result: 101

* * *

# System: U2932 TK216-resistant clone 3
# EXPERIMENTAL_DETAILS: cell proliferation relative to vehicle (% of vehicle); higher = less growth inhibition
# CONDITION_DESCRIPTION: 50 nM; 72 h
Counter-ions that a name gives are not always drawn.
Everything with cell proliferation lower than 100 is 0.0; everything else, including exactly 100, is 1.0.

>>> print(df.to_string())
                                   compound  label
0  O=C(O)C(=O)O.[NH-][C@@H]1CCCC[C@H]1[NH-].[Pt+2]    1.0
1  CN1CCC(CNc2ccc3ncc(-c4cccc(OC(F)(F)F)c4)n3n2)CC1 [SGI-1776 free base]    1.0
2  CS(=O)(=O)c1ccc(C(=O)Nc2ccc(Cl)c(-c3ccccn3)c2)c(Cl)c1    1.0
3  c1cc(-c2cnn3cc(-c4ccc(OCCN5CCCCC5)cc4)cnc23)ccn1 [Dorsomorphin 2HCl]    1.0
4  CCC[C@H](NC(=O)/C(C#N)=C/c1cccc(Br)n1)c1ccccc1 [Degrasyn (WP1130)]    1.0
5  C[C@]1(O)C[C@@H](c2nc(-c3ccc4ccc(-c5ccccc5)nc4c3)c3c(N)nccn32)C1    0.0
6  COc1cc(F)c(F)c(Nc2ccc(I)cc2F)c1NS(=O)(=O)C1(C[C@H](O)CO)CC1 [Refametinib (RDEA119, Bay 86-9766)]    1.0
7  FC(F)(F)c1ccc(/C=C/c2nc(COc3ccc(CCCCn4ccnn4)cc3)co2)cc1    0.0

Ask: Is cell proliferation at least 100? Consider O=C1c2c(O)ccc(O)c2C(=O)c2c(NCCNCCO)ccc(NCCNCCO)c21 [Mitoxantrone HCl]
Result: 0.0

Ask: Is cell proliferation at least 100? Consider NC(=O)c1cccc2cn(-c3ccc([C@@H]4CCCNC4)cc3)nc12 [MK-4827(Niraparib) tosylate]
Result: 1.0

Ask: Is cell proliferation at least 100? Consider "COc1cc(-c2cc(-c3ccc(N4CCNCC4)cc3)cnc2C)cc(OC)c1OC"
Result: 1.0

Ask: Is cell proliferation at least 100? Consider "COc1ccc2c(Oc3ccc(NC(=O)c4c(C)n(CC(C)(C)O)n(-c5ccccc5)c4=O)nc3)ccnc2c1"
Result: 0.0

Ask: Is cell proliferation at least 100? Consider "CCCCNc1ncc2c(-c3ccc(CN4CCN(C)CC4)cc3)cn([C@H]3CC[C@H](O)CC3)c2n1"
Result: 0.0

Ask: Is cell proliferation at least 100? Consider "CN(C)Cc1c(C(=O)NCCOc2ccc(C(=O)NO)cc2)oc2ccccc12"
Result: 0.0

Ask: Is cell proliferation at least 100? Consider "COc1ccc(-c2ccc3c(N4CCOC[C@@H]4C)nc(N4CCOC[C@@H]4C)nc3n2)cc1CO"
Result: 0.0
